- Test system: MALME-3M melanoma
- PROTOCOL_SUMMARY: NCI tumour cell line growth inhibition, 48 h
Label rule, in plain words: TGI of 20 µM and up is condition met, under 20 µM is condition not met.

Study these solved cases before continuing.
CCCCCCCCCCCCCP(=O)(O)O    condition met
COC(=O)C1Cc2cc3c(cc2C1=O)CCC3 (stereo unspecified)    condition met
COc1ccc2c(c1)/C(=C\c1c(Cl)[nH]c3cc(C)c(OC)cc13)C(=O)N2    condition not met
Cc1cn(C2CC(OC(=O)c3ccc(Cl)cc3)C(COC(=O)c3ccc(Cl)cc3)O2)c(=O)[nH]c1=O (stereo unspecified)    condition met
Cn1c(Cl)c(/C=C2/C(=O)Nc3ccccc32)c2ccccc21    condition not met
O=S(Cc1ccccc1)c1nc2ccccc2nc1-c1cccs1 (stereo unspecified)    condition not met
O=c1oc2ccccc2c(Nc2ccc3c(c2)Sc2ccccc2O3)c1[N+](=O)[O-]    condition met
OC(CC1CCCCN1)c1ccc2c(c1)oc1ccccc12 (stereo unspecified)    condition met

Please tell me: is the compound NC(=Nc1ccccc1Cl)c1ccccc1N at or over 20 µM in terms of TGI?
condition met

In plain terms: is recorded TGI at least 20 µM for Cc1ccc(C2=C(c3ccc(C)cc3)C3(c4ccc(C)cc4)C4C(=O)OC(=O)C4C2(c2ccc(C)cc2)S3=O)cc1 (stereo unspecified) ?
condition met

###

- System: HS 578T breast
- PROTOCOL_SUMMARY: NCI tumour cell line growth inhibition, 48 h; in the data active = GI50 below about 0.43 µM; inactive = the rest
Respond only with the outcome that fits, drawn from active, inactive

COc1cccc2c1C(=N)c1c(O)c3c(c(O)c1C2=O)C[C@@](O)(C(C)=O)C[C@@H]3O[C@H]1C[C@H](N)[C@H](O)[C@H](C)O1    inactive
COC(=O)c1ccc2[nH]c(O)c(C(=Nc3ccc(N(C)C(=O)CN4CCN(C)CC4)cc3)c3ccc4c(c3)OCO4)c2c1    active
O=C(O)c1ccc(CN2CCC(CN[C@@H]3C[C@H]3c3ccccc3)CC2)cc1    inactive
C=C1c2c(C)nn(-c3ccc(C#CCOC4OC(CO)C(O)C(O)C4O)cc3)c2N(C)C23C[C@H]1C1(C)c4c(C)nn(-c5ccc(C#CCOC6OC(CO)C(O)C(O)C6O)cc5)c4N(C)C(C)(C[C@H]12)C3 (stereo not given in full)    inactive
Cc1cn(-c2cc(NC(=O)c3cccc(C#Cc4cccc5[nH]nc(N)c45)c3)cc(C(F)(F)F)c2)cn1    inactive

Field: outcome | Entry: CCOc1cccc(/C=N/NC(=O)c2cccc(Nc3ccnc(C(F)(F)F)c3)c2)c1O
inactive

Name the outcome recorded for C#CC1(O)C(COP(=O)(O)OCC(COP(=O)(O)OCC2OC(n3cc(F)c(=O)[nH]c3=O)CC2O)OCCCCCCCCCCCCCCCCCC)OC(n2ccc(N)nc2=O)C1O (stereo not given) in the assay.
inactive

# fetch the recorded call for CCN1C(=O)/C(=C/c2c(Cl)[nH]c3cc(C)c(OC)cc23)c2ccccc21 here
inactive

How was CCN(CC)CCNC(Cc1ccccc1)c1ccc(OCc2ccccc2)cc1 (stereo not given) classified in this test?
inactive

Answer briefly: the call reported for CC/C=C\C[C@H]1CC=C2C(=O)C=C[C@@H]2CC=CCCCC(=O)O[C@@H](CCCCC)CC=C2C(=O)C=C[C@@H]2CC=CCCCC(=O)O[C@@H](CCCCC)CC=C2C(=O)C=C[C@@H]2CC=CCCCC(=O)O[C@@H](CCCCC)CC=C2C(=O)C=C[C@@H]2CC=CCCCC(=O)O1 in this assay.
inactive

###

- Tested on: CAKI-1 renal
- PROTOCOL_SUMMARY: NCI tumour cell line growth inhibition, 48 h; in the data active = GI50 below about 0.43 µM; inactive = the rest
# output must be one of 1 = active, -1 = inactive

Worked examples, 3 molecules total:
O=c1[nH]c2ccccc2cc1-c1nc2ccc(Cl)cc2[nH]1    -1
CN(C)C/C=C/C(=O)Nc1ccc(C(=O)N[C@@]2(C)CCC[C@@H](Nc3ncc(Cl)c(-c4c[nH]c5ccccc45)n3)C2)nc1    1
CCN1C(=O)c2ccc3c4c(ccc(c24)C1=O)C(=O)N(CCCNCc1ccccc1OC)C3=O    -1

Test call, this molecule: CCC[CH2][Sn]([CH2]CCC)([O]C(=O)CN)[O]C(=O)CN
-1

# outcome recorded in this test, key = COc1ccc2c(c1)OC1=C(C(=O)OC1)C2c1cc(OC)c2c(c1)OCCO2 (stereo not given)
1

###

Listing of recorded TGI by entry.
- Tested on: HT29 colon
- PROTOCOL_SUMMARY: NCI tumour cell line growth inhibition, 48 h

Requested field: TGI. Item: CCCC(C)c1ccc(OCCCCCCN2CCNCC2)cc1 (stereo unspecified)
3.74 µM

What value of TGI has been recorded for this entry: O=C(Oc1ccc[nH]c1=O)c1cc([N+](=O)[O-])cc([N+](=O)[O-])c1
> 100 µM

What does the data say about its TGI? Entry: O=S(=O)(C1=CC(S(=O)(=O)c2ccccc2)CN(Cc2ccccc2)C1c1cccc2ccccc12)c1ccccc1 (stereo unspecified)
> 69 µM

Data request, read-out TGI, for CC(C)C(O)(C(C)C)C(C)C
> 100 µM

###

- System: COLO 205 colon
- PROTOCOL_SUMMARY: NCI tumour cell line growth inhibition, 48 h; in the data active = GI50 below about 0.43 µM; inactive = the rest
Form entry, call: pick from active, inactive

Example results:
COC(=O)c1ccc2[nH]c(O)c(C(=Nc3ccc(N(C)C(=O)CN4CCN(C)CC4)cc3)c3ccc4c(c3)OCO4)c2c1    active
Nc1ncc(-c2cnn(C3CCNCC3)c2)cc1-c1nc2cc(Cl)ccc2o1    inactive

Record request — test call for CN(c1ccc(NC(=O)Nc2c(Cl)cccc2Cl)cc1)c1ccnc(Nc2cccc(CS(C)(=O)=O)c2)n1
active

# lookup: test call for COc1cc(Nc2ncccc2C(=O)Nc2nc3ccc(F)cc3s2)cc(OC)c1OC
inactive

Each molecule tested received a call. Report the one for COc1ccc2c(c1)C(=O)CCc1cc(OC)c(OC)c(OC)c1-2 .
active

What did this assay record as the result for COc1ccc2c(c1)NC1=C(C(=O)OC1)C2c1cc(OC)c(OC)c(OC)c1 (configuration not stated) ?
active

What call does the record list for O=c1[nH]c2ccccc2cc1-c1nc2ccc(Cl)cc2[nH]1 ?
inactive

###

- Test system: NCI-H460 lung
- PROTOCOL_SUMMARY: NCI tumour cell line growth inhibition, 48 h
MEASURED_PROPERTY: TGI

Cc1cccc(Cl)c1NCC(O)CN1CCN(C)CC1 (stereo unspecified)    > 100 µM

Using the record for Cc1ccc(C(=O)O)c(/C=C2\Cc3ccc(C)cc3C2=O)c1 , report its TGI.
> 100 µM

# query: TGI of entry CC[C@@H](C)[C@H](NC(=O)[C@H](Cc1ccccc1)NCC(F)(F)F)C(=O)OC(C)(C)C
> 100 µM

Query: TGI; subject: CSC(SC)(C(=O)O)c1cc(-c2c(Cl)cccc2Cl)no1
> 100 µM

Please give the measured TGI for this compound: COc1ccc2nc(N/N=C/c3sccc3C)cc(C)c2c1
28.2 µM

Fill in: TGI of O=C1N/C(=C\[N+](=O)[O-])c2ccccc21 is ___
> 100 µM

###

Form field: TGI (one value per entry).
- System: KM12 colon
- PROTOCOL_SUMMARY: NCI tumour cell line growth inhibition, 48 h

CCC1=CCN(c2cc(C)ccn2)OC1c1ccc(OC)cc1 (centres undefined)    > 100 µM
COc1ccc2c(c1)OC1=C(C(=O)OC1)C2c1cc(OC)c2c(c1)OCCO2 (centres undefined)    > 100 µM
Cc1ccc2c(ccc(/C=C/c3ccc(O)c4ncccc34)[n+]2C)c1    33.3 µM

TGI lookup needed for Cc1ccc(S(=O)(=O)N/N=C2\CCCCC23CCC(=O)NC3)cc1 (centres undefined) , thanks.
> 100 µM

Request the reported TGI associated with NC1=NN(c2ccccc2)C(=O)C1C(=O)CCC(=O)Nc1cccc(Cl)c1 (centres undefined)
> 100 µM

# TGI lookup, item O=C1CS(=O)(=O)C(c2cccc(Oc3ccccc3)c2)N1c1ccc(Cl)cc1 (centres undefined)
> 100 µM

What value of TGI has been recorded for this entry: CCOC1C(Br)Cn2c(=O)c3cc4ccccc4cc3c(=O)n2C1C (centres undefined)
> 100 µM

Entry CC(=O)OC1OC([C@H]2c3cccc(O)c3C(=O)c3c(O)cc(C)cc32)C(O)C(O)C1O (some centres undefined) has what TGI?
0.624 µM

###

- System: UO-31 renal
- PROTOCOL_SUMMARY: NCI tumour cell line growth inhibition, 48 h
Reported values of TGI for individual entries

Known results for compounds:
COc1cc2c(cc1OCCCCCCCCCCN1C(=O)c3cccc4cccc(c34)C1=O)N=C[C@@H]1CCCN1C2=O    28.5 µM
CC[C@@H](C)[C@H](NC(=O)[C@H](Cc1ccccc1)NCC(F)(F)F)C(=O)OC(C)(C)C    > 100 µM
O=C1OC(CCCN2CCCCC2)(c2ccccc2)CC12CCCC2 (centres undefined)    > 100 µM

Can you share its TGI? I mean this compound: O=C(c1ccccc1)c1ccc2n[se]nc2c1
> 100 µM

Recorded TGI of COc1cc(C=O)c(-c2c(C=O)ccc3c2OCO3)c(OC)c1OC , please.
> 100 µM

What value of TGI has been reported for the following compound? COCCOC(=O)C1=C(O)c2ccccc2S(=O)(=O)N1C
> 100 µM

Given the entry O=C(O)CSCCc1ccccc1 , report its measured TGI.
> 100 µM

Fill in the blank: the reported TGI of CC1(O)C(C)(O)C2(C)O[Te]3(OC12C)OC1(C)C(C)(O)C(C)(O)C1(C)O3 (centres undefined) is ____.
87.5 µM

Any idea what TGI was measured for CCC1=CCN(c2cc(C)ccn2)OC1c1ccc(OC)cc1 (centres undefined) ?
> 100 µM

I am curious: what TGI value has been reported for CCCCCCNCCc1cnc[nH]1 ?
> 100 µM

Returns the measured TGI for the input compound. Input: COC(=O)C1=C(OC(=O)/C(=C/c2ccccc2)c2ccc(Cl)cc2Cl)C(C(=O)OC)[C@@]2(O)[C@@H](C(=O)OC)[C@H](C)C[C@@H]1[C@@H]2C(=O)OC (some centres undefined)
> 100 µM

Sample COc1ccc2nc(N/N=C/c3sccc3C)cc(C)c2c1 — what was its TGI?
65.1 µM

Which value of TGI has been reported for CCN(CC)CCNC(Cc1ccccc1)c1ccc(OCc2ccccc2)cc1 (centres undefined) in the records?
14.7 µM

Param item = O=c1oc2ccccc2c(Nc2ccc3c(c2)Sc2ccccc2O3)c1[N+](=O)[O-] ; retrieve measured TGI.
> 100 µM

Given the entry CCCCCCCCCCCCCP(=O)(O)O , report its measured TGI.
> 100 µM

Query: TGI; subject: Cc1cn(C2CC(OC(=O)c3ccc(Cl)cc3)C(COC(=O)c3ccc(Cl)cc3)O2)c(=O)[nH]c1=O (centres undefined)
> 100 µM

Bench note: what TGI did CNC(=O)OCc1nc(SSC(C)(C)C)n(C)c1COC(=O)NC show?
20.3 µM

Which TGI reading was recorded for the compound NC(N)=NS(=O)(=O)c1ccc(NNc2c3ccccc3nc3ccccc23)cc1 ?
66.7 µM

Could you tell me which TGI is on file for CC(C)NC(=O)OCc1c2c(n(C)c1COC(=O)NC(C)C)-c1cc(Cl)c(Cl)cc1CC2 ?
> 100 µM
